# Assay method text: suppressors of polyQ aggregation in yeast, 75Q-TubU reporter (AID 1593)
# Experimental context: Yeast 75Q polyglutamine aggregation reporter
Reported score values are given for each entry in this list.

- Compound: "COc1ccc([C@@H]2CC(=O)c3c(O)cc(O[C@@H]4O[C@H](CO[C@H]5O[C@@H](C)[C@H](O)[C@@H](O)[C@H]5O)[C@@H](O)[C@H](O)[C@H]4O)cc3O2)cc1O"
  score: 1.13
- Compound: "C=CC[C@@H]1/C=C(\\C)C[C@H](C)C[C@H](OC)[C@H]2O[C@@](O)(C(=O)C(=O)N3CCCC[C@H]3C(=O)O[C@H](/C(C)=C/[C@@H]3CC[C@@H](O)[C@H](OC)C3)[C@H](C)[C@@H](O)CC1=O)[C@H](C)C[C@@H]2OC"
  score: -0.08
- Compound: "NC[C@@H]1O[C@H](O[C@@H]2[C@@H](CO)OC(O[C@@H]3[C@@H](O)[C@H](N)C[C@H](N)[C@H]3OC3O[C@H](CN)[C@@H](O)[C@H](O)[C@H]3N)[C@@H]2O)[C@H](N)[C@@H](O)[C@@H]1O (some centres not stated)"
  score: 0.97
- Compound: "COC(=O)C(N)CS (configuration not stated)"
  score: 1.37
- Compound: "CC(C)[C@@H]1CC[C@@H](C)C[C@H]1O"
  score: 1.2
- Compound: "C[C@@H]1CC2C3CCC4=CC(=O)C=C[C@]4(C)[C@@]3(F)[C@@H](O)C[C@]2(C)[C@@]1(O)C(=O)CO (some centres not stated)"
  score: 1.07
- Compound: "CC1(C)C2CC[C@]3(C)C(C(=O)C=C4[C@H]5C[C@@](C)(C(=O)O)CC[C@]5(C)CC[C@]43C)[C@@]2(C)CC[C@@H]1O (some centres not stated)"
  score: 2.14

Data credit: PubChem BioAssay
